Task for the reader: assign each of the following compounds its reported pIC50.
# Test system: AGS cells
# ASSAY_DETAILS: Cell viability in AGS cells (CellTiter Glo2, 8-point dose response, 4 days)
# Assay type: cell-based, human
# EXPERIMENTAL_SETUP: Homo sapiens, AGS, 96 h
# Experimental: AGS cells were treated with DMSO (no drug control) or each compound in Table 5 in an 8-point dose response for 4 days. Cell viability was measured using CellTiter Glo2. The IC50 of each compound was determined using CDD Vault.
pIC50: −log10 of the molar value.

Below, 2 compounds whose answers are already recorded.
* CCC(=O)N1CCc2cc(-c3ccc(C(=O)NCc4cccnc4)cn3)ccc21 | < 4.77
* CN1CCc2cc(-c3ccc(C(=O)NCc4cccnc4)cc3)ccc21 | < 4.69

Param item = CCC(=O)N1CCc2cc(-c3ccc(C(=O)NCC4CCOCC4)cc3)ccc21 ; retrieve measured pIC50.
< 4.52
